B1: SOAT1 (parent)
chain: PSNGRIDIKQLIAKKIKLTAEAEE

Variants of: B1
ASSAY_EXPLANATION: protein stability index of a GFP-peptide fusion (GPS, HEK-293T) (PSI 1-6); higher = more stable;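 also: lentivirally expressed fusions sorted by FACS into six bins by GFP to DsRed ratio, PSI derived from sequencing read proportions per bin multiplied by bin number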
CONDITIONS_USED: c terminus: a fixed tail appended
Quick rule: protein stability index of at least 3 means MET, below that means NOT MET.

Qu. Reported protein stability index at or above 3? PSNGRIHIKQLIAKKIKLTAEAEE [D7H]
Ans. MET

Qu. Check PSNGRIDIKQLIAKKIKLTSEAEE [A20S] too.
Ans. MET

Qu. Check PSNTRIDIKQLIAKKIKLTAEAEE [G4T] too.
Ans. MET

Qu. Check PSNGRIDIKQLQAKKIKLTAEAEE [I12Q] too.
Ans. MET

Qu. Check PSNGRIDIKQLIAKKTKLTAEAEE [I16T] too.
Ans. MET

Qu. Check PSHGRIDIKQLIAKKIKLTAEAEE [N3H] too.
Ans. MET

Qu. Check PSNGTIDIKQLIAKKIKLTAEAEE [R5T] too.
Ans. MET

Qu. Check PSNGRIDIKQLIAKKIKETAEAEE [L18E] too.
Ans. MET

Qu. Check PSNGRIDIKQLIAKKIELTAEAEE [K17E] too.
Ans. MET

Qu. Check PSNGRIPIKQLIAKKIKLTAEAEE [D7P] too.
Ans. MET

Qu. Check PSNGRIDIKQLIAKKIKLRAEAEE [T19R] too.
Ans. NOT MET

Qu. Check TSNGRIDIKQLIAKKIKLTAEAEE [P1T] too.
Ans. MET

Qu. Check PSNGRIDIKQLIAKKIGLTAEAEE [K17G] too.
Ans. MET

Qu. Check PSNGRIDIKQLIAKKIKLTAEAAE [E23A] too.
Ans. NOT MET

Qu. Check YSNGRIDIKQLIAKKIKLTAEAEE [P1Y] too.
Ans. MET

Qu. Check PSNGRIDIKQLIAKKIKLTAEAED [E24D] too.
Ans. MET

Qu. Check PSNGRIDIKQLIAKKIKLTAEPEE [A22P] too.
Ans. MET

Qu. Check PSNGRIDIKQGIAKKIKLTAEAEE [L11G] too.
Ans. MET

Qu. Check PINGRIDIKQLIAKKIKLTAEAEE [S2I] too.
Ans. MET

Qu. Check PSNGRIDIKQLIAKKIKLTAEAEF [E24F] too.
Ans. NOT MET

Qu. Check PSNGRIDIKQLIAKKIKDTAEAEE [L18D] too.
Ans. MET

Qu. Check PSNGRIDIKQLIQKKIKLTAEAEE [A13Q] too.
Ans. MET

Qu. Check PSNGRIDIKQLIAKKCKLTAEAEE [I16C] too.
Ans. MET

Qu. Check PSNGRIDIKQLIAKKIKLTAEASE [E23S] too.
Ans. NOT MET

Qu. Check PSNGRICIKQLIAKKIKLTAEAEE [D7C] too.
Ans. MET

Qu. Check PSNGRIDIKQVIAKKIKLTAEAEE [L11V] too.
Ans. MET

Qu. Check PSSGRIDIKQLIAKKIKLTAEAEE [N3S] too.
Ans. MET

Qu. Check PSNGRIDIKQLIAKKIKLTAEAYE [E23Y] too.
Ans. NOT MET

Qu. Check PSNGRIDIKQSIAKKIKLTAEAEE [L11S] too.
Ans. MET

Qu. Check NSNGRIDIKQLIAKKIKLTAEAEE [P1N] too.
Ans. MET

Qu. Check PSNGRIDIKQLNAKKIKLTAEAEE [I12N] too.
Ans. MET

Qu. Check PSNGRIDIKQLIAKKEKLTAEAEE [I16E] too.
Ans. MET

Qu. Check PSNGRIDIKQLIAKKSKLTAEAEE [I16S] too.
Ans. MET

Qu. Check PSNGRIDIKQLIAKLIKLTAEAEE [K15L] too.
Ans. NOT MET

Qu. Check PSCGRIDIKQLIAKKIKLTAEAEE [N3C] too.
Ans. MET

Qu. Check PSNGRIDEKQLIAKKIKLTAEAEE [I8E] too.
Ans. MET

Qu. Check PSNGRIDIKQLAAKKIKLTAEAEE [I12A] too.
Ans. MET

Qu. Check PSNGHIDIKQLIAKKIKLTAEAEE [R5H] too.
Ans. MET

Qu. Check PSNGRIDIKQLIAKKWKLTAEAEE [I16W] too.
Ans. MET

Qu. Check PSNGRIDIKQLIAKKIKLTAECEE [A22C] too.
Ans. NOT MET

Qu. Check PSNGRIDIKQLIAKKYKLTAEAEE [I16Y] too.
Ans. MET

Qu. Check PSNGRIDIKQLKAKKIKLTAEAEE [I12K] too.
Ans. MET

Qu. Check PSNGRHDIKQLIAKKIKLTAEAEE [I6H] too.
Ans. MET

Qu. Check PSNGRIDIKQLIAKTIKLTAEAEE [K15T] too.
Ans. MET

Qu. Check PSNDRIDIKQLIAKKIKLTAEAEE [G4D] too.
Ans. MET

Qu. Check PSNGRIDIGQLIAKKIKLTAEAEE [K9G] too.
Ans. MET

Qu. Check PSNGRIDIKQNIAKKIKLTAEAEE [L11N] too.
Ans. MET

Qu. Check PSVGRIDIKQLIAKKIKLTAEAEE [N3V] too.
Ans. MET

Qu. Check PSNGRIDIKQLIAKKIKLPAEAEE [T19P] too.
Ans. MET

Qu. Check PSNGRIDIKQLIAKKIKLTAEARE [E23R] too.
Ans. NOT MET

Qu. Check PSNGRIDIKQLIAKKIKLTAEAEM [E24M] too.
Ans. NOT MET

Qu. Check PSNGRIDIKQLIAKMIKLTAEAEE [K15M] too.
Ans. MET

Qu. Check PSNGRIDIKQLIAKKIKLTAEAEC [E24C] too.
Ans. MET

Qu. Check PSNGRIDIKQLIAKVIKLTAEAEE [K15V] too.
Ans. NOT MET

Qu. Check PSNGRIDIKQLIAKKMKLTAEAEE [I16M] too.
Ans. MET

Qu. Check PWNGRIDIKQLIAKKIKLTAEAEE [S2W] too.
Ans. NOT MET

Qu. Check PSNGRIDIRQLIAKKIKLTAEAEE [K9R] too.
Ans. NOT MET

Qu. Check PSNGRGDIKQLIAKKIKLTAEAEE [I6G] too.
Ans. MET

Qu. Check PSNGRIDIKQLIAKYIKLTAEAEE [K15Y] too.
Ans. NOT MET

Qu. Check PSNGRIDIKQTIAKKIKLTAEAEE [L11T] too.
Ans. MET

Qu. Check PSNGRIDIKQLIAKKIKLTFEAEE [A20F] too.
Ans. NOT MET

Qu. Check PSNGRIDIKQLIAKKIKLTAEAWE [E23W] too.
Ans. NOT MET

Qu. Check PSNFRIDIKQLIAKKIKLTAEAEE [G4F] too.
Ans. MET

Qu. Check PSNGRIDIKQLIAKKIKLTAEAKE [E23K] too.
Ans. MET

Qu. Check PSNGKIDIKQLIAKKIKLTAEAEE [R5K] too.
Ans. MET

Qu. Check PSNGRIDIKQEIAKKIKLTAEAEE [L11E] too.
Ans. MET

Qu. Check PSNPRIDIKQLIAKKIKLTAEAEE [G4P] too.
Ans. MET

Qu. Check PSNGRIDIKQLMAKKIKLTAEAEE [I12M] too.
Ans. MET

Qu. Check PSNGRIDGKQLIAKKIKLTAEAEE [I8G] too.
Ans. MET

Qu. Check PSNGRIDIKQKIAKKIKLTAEAEE [L11K] too.
Ans. MET

Qu. Check PSNGRINIKQLIAKKIKLTAEAEE [D7N] too.
Ans. MET

Qu. Check PSNGRIDIKQLIAKNIKLTAEAEE [K15N] too.
Ans. MET

Qu. Check PSWGRIDIKQLIAKKIKLTAEAEE [N3W] too.
Ans. MET

Qu. Check PSNGRIDIKQLIAKKIKITAEAEE [L18I] too.
Ans. MET

Qu. Check PSNGRIDPKQLIAKKIKLTAEAEE [I8P] too.
Ans. MET
